- TEST TARGET: Rap guanine nucleotide exchange factor 3 (Homo sapiens)
- PROCEDURE SUMMARY: Counterscreen qHTS for antagonist of cAMP-regulated guanine nucleotide exchange factor 3 (EPAC1) (AID 1645888);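 further: fluorescence loss as bound BODIPY-GDP is released from Rap1B; % of control where 0% means no effect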
- EXPERIMENTAL SETUP: Rap1B-BODIPY-GDP nucleotide exchange, fluorescence; series mostly up to 154 µM
Results filed as inconclusive are left out. Calls of active or inactive are those of the source. The call rests on the fitted dose curve; in most records, active means well fitted inhibition curve with a large enough effect; inconclusive means small, poorly fitted or top-dose-only effect; inactive means no such curve, though single readings can be large or run the other way.
ATTRIBUTE MEASURED: activity change, negative = inhibition

As a guide, the following entries are already answered.
{"columns": ["COMPOUND", "OBS VALUE"],
 "data": [
  ["COc1cccc2c1OC1(C)CC2/C(=C(\\C)O)C(=O)N1 (stereo unspecified)", "inactive"],
  ["Cc1ccc(O)c(-c2n[nH]c3c2C(c2ccc(F)cc2)N(Cc2ccco2)C3=O)c1 (stereo unspecified)", "inactive"],
  ["CCCCOc1ccc(/C=C/C(=O)OCC(=O)NC(=O)NCC(C)C)cc1OCC", "inactive"],
  ["CC(C)CNC(=O)C1(C)CCCCCN1Cc1ccccc1-c1ccccc1 (stereo unspecified)", "inactive"],
  ["O=S(=O)(O)c1ccc2c(c1)C(C(Cl)(Cl)Cl)OC(C(Cl)(Cl)Cl)O2 (stereo unspecified)", "-10.8% [at 30.8 µM] (inactive)"],
  ["N/C(CSc1nc(-c2ccccc2)c(-c2ccccc2)o1)=N\\O", "inactive"],
  ["COc1ccc(/C=N/NC(=O)c2cc(C(C)(C)C)[nH]n2)cc1COc1ccc(F)cc1F", "-14.1% [at 30.8 µM] (inactive)"],
  ["COc1ccc(NC(=O)NS(=O)(=O)c2ccc(C)cc2)cn1", "inactive"],
  ["CCOC(=O)C1=C(C)NC(C)=C(C(=O)OCC)C1c1ccc([N+](=O)[O-])s1", "inactive"],
  ["CCN(CC)c1ccc(/C=C2/C(=O)c3ccc(C(=O)O)cc3C2=O)cc1", "8.07% [at 30.8 µM] (inactive)"]
]}

Q: Dear colleague, I am looking for the recorded activity change, negative = inhibition of the following compound: O=C1N(Cc2ccccc2)c2ccccc2C1(O)c1c[nH]c2ccccc12 (stereo unspecified)
Result: inactive

Q: Dear colleague, I am looking for the recorded activity change, negative = inhibition of the following compound: Clc1ccc(CSc2nnc(-c3ccccn3)n2Cc2ccco2)cc1Cl
Result: inactive

Q: Dear colleague, I am looking for the recorded activity change, negative = inhibition of the following compound: CCn1c2c(c3cc(Cl)ccc31)CCCC2=O
Result: inactive

Q: Dear colleague, I am looking for the recorded activity change, negative = inhibition of the following compound: O=C(COc1ccc(Cl)cc1)NC1=NN(c2ccccc2)C(=O)C1
Result: inactive
